- target-under-test: UniProtKB P05067
- Sequence (P05067 672-713): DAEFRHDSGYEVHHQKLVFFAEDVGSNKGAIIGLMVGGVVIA
- assay-notes: Th-T (thioflavin-T) assay of Aβ42 aggregation
- Format: biochemical
- measurement-parameters: reading M35; Supplementary Fig. 47 source data
readout-name: Th-T fluorescence, mean of three wells

Answered examples (4):
[[record]]
molecule = "C=C1CC[C@H]2[C@]3(C)C[C@H](C=C(C)C)O[C@H]3CC[C@]2(C)[C@@H]1Cc1c(OC)oc(CO)c(C)c1=O"
target_under_test = "UniProtKB P05067"
readout_name = "Th-T fluorescence, mean of three wells"
result = 3.779

[[record]]
molecule = "C=C1CCC2C(C)(CCC=C(C)C)C(=O)CCC2(C)C1Cc1c(O)c(C)c(C)oc1=O (centres unmarked)"
target_under_test = "UniProtKB P05067"
readout_name = "Th-T fluorescence, mean of three wells"
result = 2.139

[[record]]
molecule = "C=C1CC[C@H]2[C@]3(C)C[C@H](C=C(C)C)O[C@H]3CC[C@]2(C)[C@@H]1Cc1c(O)c(C)c(C)oc1=O"
target_under_test = "UniProtKB P05067"
readout_name = "Th-T fluorescence, mean of three wells"
result = 2.976

[[record]]
molecule = "C=C1CC[C@H]2[C@]3(C)C[C@H](C=C(C)C)O[C@H]3CC[C@]2(C)[C@@H]1Cc1c(OC)oc(C)c(C)c1=O"
target_under_test = "UniProtKB P05067"
readout_name = "Th-T fluorescence, mean of three wells"
result = 4.086


INPUT: Th-T fluorescence, mean of three wells of "CC(C)=CCC/C(C)=C/CC/C(C)=C/CC/C(C)=C/Cc1c(O)c(C)c(C)oc1=O" on UniProtKB P05067?
OUTPUT: 2.742
